Tested on: P388 leukemia ip, CD2F1 mice, survival T/C
protocol.details: NCI In Vivo Anticancer Drug Screen. Data for tumor model P388 Leukemia (intraperitoneal) in CD2F1 (CDF1) mice
condition.parameters: endpoint: median survival time; dose: 12.5 mg/kg/injection; schedule: Q01DX009 (ip); vehicle: saline with Tween-80; higher = longer survival
Inconclusive results and toxic doses are left out.
property.name: T/C

(Q) I am curious: what T/C value has been reported for `CCCC1CC[N-]CC1.CCCC1CC[N-]CC1.[Br][Pt+2]([Br])([Br])[Br]` ?
(A) 98 % of control

(Q) I am curious: what T/C value has been reported for `Nc1[nH]nc(Nc2cccc(Cl)c2Cl)c1C(=O)c1cccs1` ?
(A) 101 % of control

(Q) I am curious: what T/C value has been reported for `CCCCCCCCCCCC(=O)OCCN(CCOC(=O)CCCCCCCCCCC)C(=O)COC(=O)CCCCCCCCCCC` ?
(A) 98 % of control

(Q) I am curious: what T/C value has been reported for CC(=O)OC1C=CCC2C(=O)C34CC=CC(OC(C)=O)C3(C(=O)c3ccccc3C4=O)C(=O)C12 (stereo not drawn) ?
(A) 101 % of control

(Q) I am curious: what T/C value has been reported for `COc1cc(-c2c(C#N)c(OC)[nH]c(=O)c2C#N)cc(OC)c1OC` ?
(A) 105 % of control

(Q) I am curious: what T/C value has been reported for `CCOC(=O)N1Cc2cc3cc(Cl)ccc3nc2C1` ?
(A) 105 % of control

(Q) I am curious: what T/C value has been reported for OC(c1cc(-c2ccc(C(F)(F)F)cc2)nc(-c2ccc(C(F)(F)F)cc2)c1)C1CCCCN1 (stereo not drawn) ?
(A) 107 % of control

(Q) I am curious: what T/C value has been reported for CC1CN=C(c2ccc(NC(=O)Nc3ccc(C(=O)Nc4ccc(C5=NCC(C)N5)cc4)cc3)cc2)N1 (stereo not drawn) ?
(A) 195 % of control

(Q) I am curious: what T/C value has been reported for `COc1cccc(C(=O)CC[N+](C)(C)C)c1` ?
(A) 103 % of control

(Q) I am curious: what T/C value has been reported for `COc1ccc(C2CC(=O)N(CN3CCN(c4ccccc4)CC3)C(=O)C2)cc1` ?
(A) 98 % of control

(Q) I am curious: what T/C value has been reported for NNc1ncnc2c1ccn2C1OC(CO)C(O)C1O (stereo not drawn) ?
(A) 113 % of control

(Q) I am curious: what T/C value has been reported for `O=C1NC(=O)C(=Cc2c(Cl)cccc2Cl)C(=O)N1` ?
(A) 116 % of control

(Q) I am curious: what T/C value has been reported for `CC(C)CCC1=CC(=O)C(CCC(C)C)=CC1=O` ?
(A) 106 % of control

(Q) I am curious: what T/C value has been reported for CCCNCC(O)c1cc(C(F)(F)F)nc2c(C(F)(F)F)cccc12 (stereo not drawn) ?
(A) 99 % of control

(Q) I am curious: what T/C value has been reported for CC(C)=CCC1=C(OC2OC(CO)C(O)C(O)C2O)C(=O)c2ccccc2C1=O (stereo not drawn) ?
(A) 118 % of control

(Q) I am curious: what T/C value has been reported for O=C1C(CC=C(Cl)Cl)=C(OC2OC(CO)C(O)C(O)C2O)C(=O)c2ccccc21 (stereo not drawn) ?
(A) 111 % of control

(Q) I am curious: what T/C value has been reported for O=C(Cc1ccccc1)C(Br)C(Br)c1ccccc1 (stereo not drawn) ?
(A) 118 % of control

(Q) I am curious: what T/C value has been reported for CCOC(=O)C(Cc1ccccc1)NO (stereo not drawn) ?
(A) 100 % of control
